Ref: patent US10160763B2

Target: WDR5 (Δ23, residues 24-334) (Homo sapiens, UniProt P61964)
Test: biochemical
Settings: Kd (M), FPA-based binding affinity at the WDR5 WIN site; IC50 converted to Kd by modified Cheng-Prusoff equation; average of two experiments
Property: Kd (M)

Compound	Kd / M
O=C(NCc1cccc(-c2cn3c(n2)CCC3)c1)c1ccc(O)nc1	2.68e-06
CC(=O)N1CCCC(C(=O)NCc2cc(-c3cn4c(n3)CCC4)ccc2OC2CCC2)C1 (centres unmarked)	2.31e-07
O=C(NCc1cccc(-c2cn3c(n2)CCC3)c1)C1CCCN(C(=O)CC(F)(F)F)C1 (centres unmarked)	5.8e-08

[a] COc1cc(C(=O)N(Cc2cc(-c3cn4c(n3)CCC4)ccc2N2CCOCC2)CC2CCCCC2)ccc1C
[b] Cc1cc(Cl)cc(C(=O)NCc2cccc(-c3cn4c(n3)CCC4)c2)c1
stdin: Select one: a or b . Criterion: greater recorded Kd. Record your answer as the label of the chosen record.
stdout: b

----------
Molecular target: WDR5 (Δ23, residues 24-334) (Homo sapiens)
Assay: biochemical
Details: Kd (M), FPA-based binding affinity at the WDR5 WIN site; IC50 converted to Kd by modified Cheng-Prusoff equation; average of two experiments
Property: Kd (M)

[P] COc1cccc(CCC(=O)NCc2cccc(-c3cn4c(n3)CCC4)c2)c1
[Q] O=C(NCc1cccc(-c2cn3c(n2)CCC3)c1)Nc1ccccc1
[R] CCC(NC(=O)Cc1ccc(F)c(Cl)c1)c1cccc(-c2cn3c(n2)CCC3)c1 (centres unmarked)
[S] CS(=O)(=O)N1CCCCC1C(=O)NCc1cccc(-c2cn3c(n2)CCC3)c1 (centres unmarked)
stdin: Hi! Can you put these in order of Kd, lowest number first? Labels, ranked as asked.
stdout: R, P, S, Q

----------
Target: WDR5 (Δ23, residues 24-334) (Homo sapiens, UniProt P61964)
Test: biochemical
Conditions: Kd (M), FPA-based binding affinity at the WDR5 WIN site; IC50 converted to Kd by modified Cheng-Prusoff equation; average of two experiments
Property: Kd (M)

The cases that follow already have their Kd on record.
Compound	Units Symbol	Numeric Result
COc1ccc(C(=O)N(Cc2ccc(C)cc2)Cc2cccc(-c3cn4c(n3)CCC4)c2)cc1OC [B66]	M	5.53e-07
COc1cccc(C(=O)NC(C)c2cccc(-c3cn4c(n3)CCC4)c2)c1 (stereo not drawn) [B205]	M	2.3e-08
COc1cccc(C(=O)N(CC2CC2)C(C)c2cccc(-c3cn4c(n3)CCC4)c2)c1 (stereo not drawn) [B191]	M	1.85e-06
O=C(CCc1ccccc1)NCc1cccc(-c2cn3c(n2)CCC3)c1 [B13]	M	2.3e-06
CC(NC(=O)Cc1ccc(F)c(Cl)c1)c1cc(-c2cn3c(n2)CCC3)ccc1OC1CCC1 (stereo not drawn) [B212]	M	4.7e-08
CN(C)C(=O)CCC(=O)NCc1cccc(-c2cn3c(n2)CCC3)c1 [B124]	M	2.25e-07

[1] COC1CCN(c2ccc(-c3cn4c(n3)CCC4)cc2CNC(=O)Cc2ccc(Cl)c(Cl)c2)C1 (stereo not drawn) [B177]
[2] Cc1ccc(-c2ccc(-c3cn4c(n3)CCC4)cc2CNC(=O)Cc2ccc(Cl)c(Cl)c2)cc1 [B163]
[3] COc1cccc(C(=O)NCc2cc(-c3cn4c(n3)CCC4)ccc2N2CCCC2)c1 [B114]
stdin: Arrange the 3 entries by Kd so the values rise. Labels, ranked as asked.
stdout: 3, 1, 2
